- assayDetails: human hepatoma cell viability loss – ATP luminescence, cytotoxicity control for P. falciparum antimalarial project, primary screen (AID 2303);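 further: 0% = DMSO wells and 100% = digitonin-killed cells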
- measurementParameters: HepG2 viability, 24-48 h, at 10 µM, hits give high values
measure: inhibition (%)
Numbers only; they are read as %.

Problem: // lookup inhibition for O=C(C=Cc1ccc(Cl)c(Cl)c1)NCCCCCN1CCC(CCNS(=O)(=O)c2ccc(Br)cc2)CC1
Solution: 58

Problem: Fill blank: measured inhibition of the compound O=C(Cc1cccc2ccccc12)N1CCc2cc3nccc(N4CCN5CCC[C@H]5C4)c3cc21 is ____.
Solution: 3

Problem: Item CCC1CCCCN1S(=O)(=O)c1ccc(NC(=O)c2cc(C)on2)cc1 (centres undefined) has what recorded inhibition?
Solution: 0

Problem: Need inhibition, item CS(=O)(=O)CCNCc1nc(-c2ccc3c(Nc4ccc(Oc5ccccn5)cc4)ccnc3c2)cs1
Solution: 9

Problem: What value of inhibition has been reported for the following compound? Cc1cc(N[C@@H](CC(C)C)C(=O)NCCc2ccccc2)nc(NCCc2cccs2)n1
Solution: 0

Problem: Query: inhibition; subject: Cc1ccc2c(Cl)c(C(=O)N3CCCc4ccccc43)sc2c1
Solution: 4

Problem: What value of inhibition has been reported for the following compound? CCCCCCNCCOc1ccc(-c2nc(-c3ccccc3)c(-c3ccccc3)[nH]2)cc1
Solution: 14

Problem: Item under review: COc1ccc(-c2ccc(NC(=O)c3ccc(Cl)cc3)cc2)cc1CN1CCNCC1 . Reported inhibition?
Solution: 14

Problem: Fill blank: measured inhibition of the compound COc1ccc2nccc(N3CCC(NCCNCc4ccc5c(n4)NC(=O)CO5)C3)c2n1 (centres undefined) is ____.
Solution: 0

Problem: Fill in the blank: the reported inhibition of CN1C(C)(C)CC(NC(=O)c2ccc(-c3nc4cc(Cl)c(Cl)cc4[nH]3)cc2)CC1(C)C is ____.
Solution: 8

Problem: inhibition for O=C(Nc1cccc(-c2cccc(-c3nc4ccc(C(F)(F)F)cc4[nH]3)c2)c1)Nc1ccc(F)c(F)c1F ?
Solution: 71

Problem: inhibition lookup needed for COc1ccc(-c2ccnc(-c3cccc(-c4ccccn4)n3)c2)cc1 , thanks.
Solution: 44

Problem: // returns reported inhibition for input NCCC(=O)Nc1ccc(-c2cnc3[nH]cc(-c4ccc(C(=O)O)cc4)c3c2)cn1
Solution: -8

Problem: Look at this compound and give its reported inhibition. COc1ccc(CN2CCCC(OC(c3ccc(F)cc3)c3ccc(F)cc3)C2)c(O)c1 (centres undefined)
Solution: 16

Problem: Suppose we examine the compound COc1cc(NC(=O)c2ccc3oc4ccccc4c3c2)ccc1OCCN1CCCCC1 ; what inhibition value has been reported?
Solution: 12

Problem: So what does the record say about inhibition for CC(=O)c1cccc(NC(=O)NC2CCN(CCCCCNC(=O)/C=C/c3ccc(Cl)c(Cl)c3)CC2)c1 ?
Solution: 7

Problem: What does the record list as inhibition for CN(C)CCN(Cc1ccccc1-c1ccc(CNCCc2ccccc2)cc1)C(=O)c1ccccc1 ?
Solution: 81

Problem: Record request: inhibition value, item Nc1nc2ncn(COC(COCc3ccccc3)COCc3ccccc3)c2c(=O)[nH]1 (tested in a mixture with another compound)
Solution: 18

Problem: Which measured inhibition value corresponds to Cc1cc(O)c2c(c1)OC(C)(C)C=C2C1=CCN(Cc2ccccc2)CC1 ?
Solution: -2

---

- assayDetails: antimalarial activity against Dd2 strain (AID 2302);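 further: 0% = DMSO untreated growth and 100% = chloroquine plus artemisinin killed control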
- measurementParameters: P. falciparum Dd2 in RBCs, LDH growth readout, 72 h; at 2 µM; hits give high values
measure: growth inhibition (%)
Entry rule: numbers only, all in %.

Problem: Would you mind telling me what growth inhibition value was observed for Clc1cccc(CNC2CCN(CC3CCCCC3)CC2)c1 ?
Solution: 24

Problem: Looking for the measured growth inhibition of N#Cc1cccc(NC(=O)Nc2ccc(-c3csc(-c4nc5ccccc5[nH]4)c3)cc2)c1 , can you help?
Solution: 97

Problem: Need growth inhibition of O=C(Nc1nc2ccc(Cl)cc2s1)c1csnn1 , thanks.
Solution: 99

Problem: Reported growth inhibition, molecule COc1cc(-c2cc(-c3ccc(OCCN(C)C)cc3)[nH]c2-c2ccncc2)ccc1Cl : ____
Solution: 100

Problem: Can you look up the measured growth inhibition of O=C(/C=C/c1ccc(Cl)c(Cl)c1)NCCCCCN1CCC(NC(=O)Nc2cc(Cl)cc(Cl)c2)CC1 for me?
Solution: 5

Problem: If you can, please state the reported growth inhibition value of C[C@@H](COc1ccccc1)NCC(O)c1ccc([N+](=O)[O-])c(OCc2ccccc2)c1 (stereo partly drawn) .
Solution: 64

Problem: I have this molecule here, Cc1ccc(O)c(C(=O)c2cc(C(=O)Nc3ccccc3C)c(=O)n(-c3ccccc3C)c2)c1 , and I need its recorded growth inhibition.
Solution: 81

Problem: Item COc1ccccc1CCNc1nc(C)cc(N[C@@H](CC(C)C)C(=O)NCc2cccs2)n1 has what recorded growth inhibition?
Solution: 31

Problem: Field request: growth inhibition | item: COc1ccc(N2CCN(CCCC/C=C/c3ccc(NC(=O)c4cc(Cl)cc(Cl)c4)cc3)CC2)c(OC)c1
Solution: 39

Problem: Given the molecule Cc1ccccc1CCNC(=O)c1ccc(N2CCN(c3ccncc3)CC2)nc1 , what is its reported growth inhibition?
Solution: 20

Problem: Look up growth inhibition for this molecule: Cc1nn(CC(O)Cn2c3ccc(Br)cc3c3cc(Br)ccc32)c(C)c1Br (stereo not drawn)
Solution: 81

Problem: growth inhibition for O=C(Cc1cccc(Cl)c1)Nc1cccc(-c2c[nH]c3nc(Nc4ccccc4)ncc23)c1 ?
Solution: 70

Problem: Any idea what its growth inhibition is? The molecule is O=C(NCc1ccc(Cl)c(Cl)c1)c1cc(CNC2CCNCC2)ccc1O
Solution: 2

Problem: I'd like to know its growth inhibition. The molecule in question is O=C(Nc1cccc(-c2cccc(-c3nc4ccccc4[nH]3)c2)c1)Nc1ccc(Cl)c(Cl)c1
Solution: 98

Problem: Query: growth inhibition; subject: O=C(Nc1cccc(CN2CCN(Cc3ccc(O)cc3)CC2)c1)c1ccc(-c2ccccc2)cc1
Solution: 67

Problem: Any idea what growth inhibition was measured for C#CCN(Cc1ccc2nc(N)[nH]c(=O)c2c1)c1ccc(C(=O)N[C@@H](CCC(=O)O)C(=O)O)cc1 ?
Solution: 96

Problem: What value of growth inhibition has been recorded for this entry: CN1CCC(Oc2cc(CN3CC[C@H](NC(=O)c4ccc(Cl)c(Cl)c4)C3)ccc2I)C1 (stereo partly drawn)
Solution: 24

Problem: Form field: reported growth inhibition of Cc1ccc(C)c(Cn2ccc3nc(N)nc(N)c32)c1
Solution: 3

Problem: Can you look up the measured growth inhibition of Cc1cccc2[nH]c(-c3ccc(-c4ccc(CN5CCCCC5)cc4)s3)nc12 for me?
Solution: 87

Problem: Any idea what its growth inhibition is? The molecule is Cc1ncccc1C(=O)Nc1ccc(-c2cccc(-c3nc4c(C)cccc4[nH]3)c2)cc1
Solution: 31

Problem: Entry under review: NC1CCCN(Cc2cccc(-c3ccc(-c4nc5ccc(C(F)(F)F)cc5[nH]4)cc3)c2)C1 (stereo not drawn) . Reported growth inhibition?
Solution: 96

Problem: Need growth inhibition, item Cc1cccc2[nH]c(-c3cccc(-c4cccc(NC(=O)Nc5ccc(F)c(F)c5F)c4)c3)nc12
Solution: 99

Problem: GET /values?readout=growth inhibition&item= CCNc1cc(C)nc(Nc2ccc(NS(=O)(=O)c3cc(OC)ccc3OC)cc2)n1
Solution: 36

Problem: Please look up its growth inhibition: COc1cc(C(=O)N2N=C(c3c(-c4ccccc4)c4cc(Br)ccc4[nH]c3=O)CC2c2cccc([N+](=O)[O-])c2)cc(OC)c1OC (stereo not drawn)
Solution: 95

Problem: Consider the molecule Cc1ccc(Nc2nc(N)c3ccccc3n2)cc1 and give its measured growth inhibition.
Solution: 12

Problem: What does the data say about its growth inhibition? Entry: CC(=O)Nc1nc(C(=O)Nc2ccc(-c3ccc(-c4nc5c(C)cccc5[nH]4)cc3)cc2)cs1
Solution: 53

Problem: # lookup: growth inhibition of CC1(C)[C@H]2CC[C@@H](CNc3nc(NCCc4cnc[nH]4)nc(Nc4ccc5c(c4)OCO5)n3)[C@@H]1C2
Solution: 88

Problem: Dear colleague, I am looking for the recorded growth inhibition of the following molecule: CCn1ccc2c(N3CCCS3(=O)=O)cc(C(=O)N[C@@H](Cc3ccccc3)[C@H](O)CNC(C)(C)CCCC(C)C)cc21
Solution: 98

Problem: Fill blank: measured growth inhibition of the molecule Cc1cc(NC(=O)Nc2cccc(Cl)c2Cl)c2ccccc2n1 is ____.
Solution: 25

Problem: Item under review: CCCCCN1CCCCC(NS(=O)(=O)c2ccc(C(=O)Nc3ccc(C(F)(F)F)cc3)cc2)C1 (stereo not drawn) . Reported growth inhibition?
Solution: -4

Problem: Reported growth inhibition for Cc1noc(C)c1-c1cccc(CNCc2cccc(-c3ccc(-c4nc5ccccc5[nH]4)cc3)c2)c1 : what is it?
Solution: 76

Problem: Form field: reported growth inhibition of CNCCNCc1cccc(-c2ccc(-c3nc4c(C)cccc4[nH]3)s2)c1
Solution: 8

Problem: Item under review: CCCCCCNCCOc1ccc(-c2nc(-c3ccccc3)c(-c3ccccc3)[nH]2)cc1 . Reported growth inhibition?
Solution: 39

Problem: Given CC(C)(C)c1ccc(CN2CCC(NC(=O)c3ccc(-c4cccc(F)c4)s3)CC2)cc1 , state its recorded growth inhibition.
Solution: 24

Problem: Param item = Nc1c(Cl)cc(C(O)CNCCCCCOCCc2ccc3occc3c2)cc1Cl (stereo not drawn) ; retrieve measured growth inhibition.
Solution: 74

Problem: # lookup: growth inhibition of O=C(NC1CC1)c1cnc(N2CCC(Cc3ccccc3)CC2)c(Cl)c1
Solution: 96

Problem: Entry Cc1ccccc1C1CCN(C2CCC(NC(=O)/C=C/c3cc(F)ccc3C(F)(F)F)CC2)CC1 (stereo not drawn) has what growth inhibition?
Solution: 25

Problem: Which growth inhibition is listed for CC(C)NCc1ccc(-c2ccc(CN3CCCC(c4ccccc4)C3)cc2)c(C(=O)NCC2CCCCC2)c1 (stereo not drawn) ?
Solution: 53
